target: human FAAH (Homo sapiens); construct: host or cells: COS-7 cells, transient transfection; 13,000 g membrane fraction solubilised in 1% Triton X-100; experiment: Human FAAH biochemical inhibition assay (AMC arachidonoyl amide fluorescence); settings: Table 2, human FAAH (no asterisk); read-out: Activity (Ki)
Sequence (O00519 whole entry): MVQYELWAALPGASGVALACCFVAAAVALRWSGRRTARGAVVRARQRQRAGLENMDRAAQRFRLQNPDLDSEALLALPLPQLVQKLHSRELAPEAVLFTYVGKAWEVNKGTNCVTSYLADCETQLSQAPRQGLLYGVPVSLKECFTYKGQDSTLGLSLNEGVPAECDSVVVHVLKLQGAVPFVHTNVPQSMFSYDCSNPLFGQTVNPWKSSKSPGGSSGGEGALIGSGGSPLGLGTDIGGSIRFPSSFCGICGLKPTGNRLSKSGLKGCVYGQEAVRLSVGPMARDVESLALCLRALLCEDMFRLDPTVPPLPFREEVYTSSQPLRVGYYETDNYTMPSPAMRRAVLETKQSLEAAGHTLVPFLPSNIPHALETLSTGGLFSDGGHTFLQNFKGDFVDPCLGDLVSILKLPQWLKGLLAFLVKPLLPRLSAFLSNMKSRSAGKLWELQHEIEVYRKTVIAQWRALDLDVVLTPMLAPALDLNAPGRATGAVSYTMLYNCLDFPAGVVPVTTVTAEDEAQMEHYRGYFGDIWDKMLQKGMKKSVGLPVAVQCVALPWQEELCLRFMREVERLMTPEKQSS
measurement-name: Ki

Lookup: What Ki value was documented for this compound, OB(O)c1ccc(COCc2ccccc2C(F)(F)F)cc1F ?
Found: < 0.01 µM

Lookup: For OB(O)Cc1ccc(-c2ccccc2)cc1 , what is its reported Ki?
Found: > 1 µM

Lookup: Tell me the measured Ki of OB(O)c1ccc(CN(c2ccccc2)c2ccccc2)cc1 , please.
Found: > 1 µM

Lookup: Item COc1c(C)cc(Oc2ccc(B(O)O)cc2)cc1C has what recorded Ki?
Found: 0.01 to 0.1 µM

Lookup: # input compound: CC1(C)OB(c2ccc(Oc3cccnc3)cc2F)OC1(C)C ; wanted: its Ki
Found: < 0.01 µM

Lookup: I have this compound here, Cc1cc(-c2cccc(F)c2)ccc1B(O)O , and I need its recorded Ki.
Found: 0.01 to 0.1 µM

Lookup: Form field: reported Ki of OB(O)c1ccc(Oc2ccc(F)c(F)c2)cc1
Found: < 0.01 µM

Lookup: Consider the compound OB(O)c1ccc(OCCc2ccncc2)cc1F and give its measured Ki.
Found: < 0.01 µM

Lookup: Quick one: Ki of CC(C)NC(=O)c1cccc(Oc2ccc(B(O)O)cc2)c1 ?
Found: < 0.01 µM

Lookup: Bench note: what Ki did OB(O)c1ccc(OCc2ccncc2)cc1F show?
Found: 0.01 to 0.1 µM

Lookup: Param item = CN(Cc1ccc(B(O)O)cc1)c1ccccc1 ; retrieve measured Ki.
Found: < 0.01 µM

Lookup: Which Ki is reported for this compound? O=C(c1ccc(B(O)O)cc1)N1CCCCC1
Found: 0.01 to 0.1 µM

Lookup: Tell me the measured Ki of CC1(C)OB(c2ccc(OCc3ccncc3)cc2F)OC1(C)C , please.
Found: 0.01 to 0.1 µM

Lookup: Which Ki is listed for CCCCNC(=O)C(Oc1ccc(B(O)O)cc1)c1ccccc1 (centres unmarked) ?
Found: 0.01 to 1 µM

Lookup: # lookup: Ki of CC1(C)OB(c2ccc(OCc3cnco3)cc2F)OC1(C)C
Found: 0.01 to 0.1 µM

Lookup: Need Ki of Cc1ccc(Oc2ccc(B(O)O)cc2)cc1Cl , thanks.
Found: < 0.01 µM

Lookup: Which Ki is reported for this compound? O=c1ccccn1CCCOc1ccc(B(O)O)cc1
Found: 0.01 to 0.1 µM

Lookup: Quick check: Ki of OB(O)c1ccc(COCc2ccc(C(F)(F)F)cc2)cc1F ?
Found: < 0.01 µM

Lookup: # lookup: Ki of Cc1nc2cc(B(O)O)ccc2s1
Found: 0.01 to 1 µM

Lookup: Tell me the measured Ki of Cc1cc(CNc2ccc(B3OC(C)(C)C(C)(C)O3)cc2)ccc1F , please.
Found: > 1 µM

Lookup: I'd like to know its Ki. The compound in question is CC(C)(C)OC(=O)Nc1ccc(CCOc2ccc(B(O)O)c(F)c2)cc1
Found: 0.01 to 0.1 µM

Lookup: Tell me the measured Ki of OB(O)c1ccc(OCCc2ccccc2)c(Cl)c1 , please.
Found: < 0.01 µM

Lookup: Fill blank: measured Ki of the compound OB(O)c1ccc(Oc2ccncc2)cc1 is ____.
Found: 0.01 to 1 µM

Lookup: So what does the record say about Ki for O=C(Cc1ccccc1)Nc1ccc(B(O)O)cc1 ?
Found: 0.01 to 0.1 µM

Lookup: Report Ki for OB(O)c1ccc(Cc2ccccc2)cc1 please.
Found: < 0.01 µM

Lookup: Query (compound): CC(C)Oc1cccc(Oc2ccc(B(O)O)cc2)c1 ; field requested: Ki
Found: < 0.01 µM

Lookup: # lookup: Ki of OB(O)c1ccc(OCCCOc2ccccn2)cc1
Found: 0.01 to 0.1 µM

Lookup: Need Ki of OB(O)c1ccc(-c2cccc(F)c2)c(Cl)c1 , thanks.
Found: 0.01 to 0.1 µM

Lookup: Data request, read-out Ki, for COC(=O)C(Oc1ccc(B(O)O)cc1)c1ccccc1 (centres unmarked)
Found: 0.01 to 0.1 µM

Lookup: I would be grateful if you could share the reported Ki for OB(O)c1ccc(Oc2cccc(OC(F)(F)F)c2)cc1 .
Found: < 0.01 µM

Lookup: Which Ki value belongs to O=C(c1cccc(Oc2ccc(B(O)O)cc2)c1)N1CCCC1 ?
Found: 0.01 to 0.1 µM

Lookup: May I ask what Ki has been recorded for O=C(COc1ccc(B(O)O)c(F)c1)c1ccccc1 ?
Found: < 0.01 µM

Where these numbers come from: patent US8329675B2
